- Substrate: O=C(O)C(=O)c1ccc(O)cc1
- MEASUREMENT_NOTES: initial rates of reductive amination, HPLC, Michaelis-Menten fit
- Assay type: biochemical, Corynebacterium glutamicum
- EXPERIMENTAL_PARAMETERS: 0.5 mM NADPH, 10 mM NH4Cl, 50 mM Tris-HCl pH 8.0, 30 °C, HPGA 1-20 mM
READOUT_NAME: kcat/Km (M⁻¹ s⁻¹)
Record the value in M⁻¹ s⁻¹, omitting the unit from your answer.

## Task Entry CgDAPDH^BC621 (Corynebacterium glutamicum ATCC 13032; D120S/D154G/H244N/Q150L/R195M/T169P) (protein, five-fold mutant BC621 in pET28a, recombinant in E. coli BL21(DE3), HisTrap purified) MTNIRVAIVGYGNLGRSVEKLIAKQPDMDLVGIFSRRATLDTKTPVFDVADVDKHADDVDVLFLCMGSATDIPEQAPKFAQFACTVDTYDNHRDIPRHRQVMNEAATAAGNVALVSTGWSPGMFSINRVYAAAVLAEHQQHTFWGPGLSLGHSGALRRIPGVQKAVQYPLPSEDALEKARRGEAGDLTGKQTHKMQCFVVADAADHERIENDIRTMPDYFVGYEVEVNFIDEATFDSEHTGMPNGGHVITTGDTGGFNHTVEYILKLDRNPDFTASSQIAFGRAAHRMKQQGQSGAFTVLEVAPYLLSPENLDDLIARDV has what kcat/Km?
## Result 3.17
